Target: UniProt:P49841
Sequence (P49841 whole entry, looked up): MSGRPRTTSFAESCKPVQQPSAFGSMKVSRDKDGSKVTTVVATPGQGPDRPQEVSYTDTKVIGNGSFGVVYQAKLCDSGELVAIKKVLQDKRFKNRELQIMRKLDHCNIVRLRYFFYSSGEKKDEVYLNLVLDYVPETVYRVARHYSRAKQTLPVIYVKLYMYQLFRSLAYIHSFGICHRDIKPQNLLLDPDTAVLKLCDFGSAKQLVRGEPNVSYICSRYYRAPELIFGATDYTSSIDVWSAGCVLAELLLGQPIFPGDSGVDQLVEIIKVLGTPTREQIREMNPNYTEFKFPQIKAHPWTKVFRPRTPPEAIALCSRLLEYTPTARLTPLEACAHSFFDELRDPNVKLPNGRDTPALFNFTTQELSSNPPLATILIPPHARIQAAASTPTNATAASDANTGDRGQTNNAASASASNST
Experiment: Inhibition of human recombinant GSK-3 beta expressed in baculovirus-infected Sf9 cells assessed as enzyme residual activity using YRRAAVPPSPSLSRHSSPHQSpEDEEE as substrate at 1 uM incubated for 30 mins in presence of ATP by ADP-Glo kinase assay
attribute.measured: Activity (%)
Give your result in % as a bare value.

"Cn1cc(I)c2cc3ccncc3cc21" on UniProt:P49841 gives Activity = 81

Form field Activity for item "CC(=O)c1c[nH]c2cc3cnccc3cc12" on UniProt:P49841: 69

// Activity (UniProt:P49841) for "OCc1c[nH]c2cc3cnccc3cc12" = 84

Assay UniProt:P49841, sample "CCNCc1c[nH]c2cc3cnccc3cc12" , Activity read: 76

Value (Activity, UniProt:P49841) for record "N#Cc1c[nH]c2cc3cnccc3cc12" = 59

Tested on UniProt:P49841, the item "Cn1ccc2cc3ccncc3cc21" showed Activity equal to 100

Short answer on UniProt:P49841 for "c1ccc(-c2c[nH]c3cc4cnccc4cc23)cc1" , Activity: 66

Param item: "Nc1cc2cc3ccncc3cc2[nH]1" ; param system: UniProt:P49841; output Activity: 69

Entry "CN(C)Cc1c[nH]c2cc3cnccc3cc12" , UniProt:P49841 data, Activity value: 78

UniProt:P49841 assay, molecule "CNCc1c[nH]c2cc3cnccc3cc12" , recorded Activity = 87

Activity value, target or system UniProt:P49841, for "ON=Cc1c[nH]c2cc3cnccc3cc12" : 80

The molecule "O=Cc1c[nH]c2cc3cnccc3cc12" on UniProt:P49841: Activity was 55

Value (Activity, UniProt:P49841) for record "Ic1c[nH]c2cc3cnccc3cc12" = 77

Activity on UniProt:P49841 for "NCc1c[nH]c2cc3cnccc3cc12" is 94

Hey, UniProt:P49841 data for "CCn1ncc2cc3cnccc3c(N)c21" : Activity came out at 82

---

Biological target: UniProtKB P49841
Experiment: Inhibition of human recombinant GSK-3 beta expressed in baculovirus-infected Sf9 cells assessed as enzyme residual activity using YRRAAVPPSPSLSRHSSPHQSpEDEEE as substrate at 10 uM incubated for 30 mins in presence of ATP by ADP-Glo kinase assay
Task for the reader: assign each of the following compounds its reported Activity.
Answer in %, number only, no unit symbol.

Item "Nc1cc2cc3ccncc3cc2[nH]1" was tested on UniProtKB P49841; the reported Activity is 64

For the compound "CCN(CC)Cc1c[nH]c2cc3cnccc3cc12" , the measured Activity on UniProtKB P49841 was 77

The compound "CCn1ncc2cc3cnccc3c(N)c21" , when measured on UniProtKB P49841, yielded Activity of 42

Lab note: compound "Brc1c[nH]c2cc3cnccc3cc12" tested on UniProtKB P49841; recorded Activity was 62

UniProtKB P49841 Activity of "Nc1nccc(-c2c[nH]c3cc4cnccc4cc23)n1" is 35

Form field, Activity with UniProtKB P49841, item "O=Cc1c[nH]c2cc3cnccc3cc12" : 23

Given the compound "Cn1ccc2cc3ccncc3cc21" and test system UniProtKB P49841, the measured Activity is 83

Activity on UniProtKB P49841 for "c1cc(-c2c[nH]c3cc4cnccc4cc23)ccn1" is 54

Entry "OCc1c[nH]c2cc3cnccc3cc12" ; assay system UniProtKB P49841; Activity recorded at 81

Item "CCNCc1c[nH]c2cc3cnccc3cc12" ; assay system UniProtKB P49841; Activity reported as 80

Activity on UniProtKB P49841 for "c1cc2cc3cc[nH]c3cc2cn1" is 100

Let me check: "COc1ncc2cc3cnccc3c([N+](=O)[O-])c2n1" , system UniProtKB P49841, measured Activity is 29

Record "NCc1c[nH]c2cc3cnccc3cc12" has UniProtKB P49841 Activity equal to 80

The reported Activity value, UniProtKB P49841, for "CNCc1c[nH]c2cc3cnccc3cc12" reads 83
